Tested on: Crude diglycosidase
run_description: Examination of temperature in the conversion into isoflavone aglycons by diglycosidase using soybean materials
Format: biochemical, Penicillium multicolor IAM7153
Set-up: concentration or dose not given beside the values
condition_notes: 30° C., heat treatment of enzyme no, reaction time 6 h
readout_kind: Decomposition efficiency of daidzin family in defatted soybean

CC(=O)OC[C@H]1O[C@@H](Oc2ccc3c(=O)c(-c4ccc(O)cc4)coc3c2)[C@H](O)[C@@H](O)[C@@H]1O [acetyldaidzin, 6″-O-acetyldaidzin] : not detected
O=c1c(-c2ccc(O)cc2)coc2cc(O[C@@H]3O[C@H](CO)[C@@H](O)[C@H](O)[C@H]3O)ccc12 [daidzin] : not detected
O=C(O)CC(=O)OC[C@H]1O[C@@H](Oc2ccc3c(=O)c(-c4ccc(O)cc4)coc3c2)[C@H](O)[C@@H](O)[C@@H]1O [malonyldaidzin, 6″-O-malonyldaidzin] : 45.1%
O=c1c(-c2ccc(O)cc2)coc2cc(O)ccc12 [daidzein] : 54.9%

Cited source: patent US7118895B2
